- System: NCI-H647
- test.description: relative viability (nuclei count vs DMSO), 5 days (fraction); higher = more cells survive
- condition.summary: first compound 0.1265 µM
// reported relative viability for each item listed
The answer should be written as a number, with no unit following it.

C[C@@H]1CN(CC(=O)Nc2ccc3c(c2)Cc2cccc(-c4cc(=O)cc(N5CCOCC5)o4)c2S3)C[C@H](C)O1 + CC(=O)c1c(C)c2cnc(Nc3ccc(N4CCNCC4)cn3)nc2n(C2CCCC2)c1=O [Palbociclib] (partner 0.5 µM) :: 0.336

// switching to the query compound
Dear colleague, I am looking for the recorded relative viability of the following compound: C[C@@H]1CN(CC(=O)Nc2ccc3c(c2)Cc2cccc(-c4cc(=O)cc(N5CCOCC5)o4)c2S3)C[C@H](C)O1 + Cc1nc(Nc2ncc(C(=O)Nc3c(C)cccc3Cl)s2)cc(N2CCN(CCO)CC2)n1 [Dasatinib] (partner 0.075 µM)
0.159
